Tested on: DMS-273
Assay: NCI tumour cell line growth inhibition, 48 h
Counter-ions that a name gives are not always drawn. Active and inactive are the calls of the source. Cut-off read from the data, not from the text of the source: active = GI50 up to about 1.1 µM and inactive = higher.
Write down one outcome, taken from 1 (active), -1 (inactive)

Look over these answered cases.
1. Clc1cccc(N2CCN(CCN3CCc4c([nH]c5ccccc45)C3c3cccnc3)CC2)c1 (stereo not drawn)    -1
2. C=C1CN2CCc3c([nH]c4ccccc34)C2CC1CC(=O)N(C)C (stereo not drawn)    -1
3. CC(=O)N(O)CCCCCNC(=O)CCC(=O)N(O)CCCCCNC(=O)CCC(=O)N(O)CCCCCN [DEFEROXAMINE HYDROCHLORIDE]    -1
4. Nc1nc(=O)[nH][nH]1    -1
5. COC1[C@@H](OC(C)=O)[C@@H](NC(=O)C(Cl)(Cl)Cl)C(I)[C@@H](N2C(=O)c3ccccc3C2=O)[C@H]1OC (stereo partly drawn)    -1

QUERY: Check the results log: what was the call for O=C1C(=Cc2c(O)cc(O)cc2O)C(=O)c2ccccc21 ?
RESULT: -1

QUERY: # lookup: test call for COC(=O)Nc1nc2cc(C(=O)c3cccs3)ccc2[nH]1 [NOCODAZOLE]
RESULT: 1

QUERY: Assay result, entry Cc1cc2c(=O)c(C)n[nH]c2c(C#N)c1C — outcome?
RESULT: -1

QUERY: Please indicate how the test categorized CC(C)(C)C1=Nc2c(Br)cc(C(C)(C)C)cc2C(C(F)(F)F)(C(F)(F)F)O1 .
RESULT: -1

QUERY: Record lookup: outcome of this test for O=C(CC1C(=O)Nc2ccccc2S1(=O)=O)Nc1ccc(Cl)cc1 (stereo not drawn) ?
RESULT: -1

====

Test system: SK-MEL-2
Experiment: NCI tumour cell line growth inhibition, 48 h
Activity calls are given as the source filed them. No stated cut-off is given here; in the data, active = GI50 up to about 1.1 µM and inactive = higher.
MEASURED_ATTRIBUTE: GI50

Solved cases (2 shown):
1) CS(=O)(=O)Nc1ccc(NCc2c[nH]c3ccc4ncccc4c23)cc1    17.1 µM (inactive)
2) C/C(=N\NC(=S)N1CCC1)c1ccccn1    1.97 µM (inactive)

QUERY: What value of GI50 has been reported for the following molecule? CSC1=C(C#N)C(=O)N(c2ccc(C)cc2)C(=S)C1C#N (stereo not drawn)
RESULT: > 100 µM (inactive)

====

# GI50 per entry
Tested on: CCRF-CEM
Assay: NCI tumour cell line growth inhibition, 48 h
Active and inactive are the calls of the source. No stated cut-off is given here; in the data, active = GI50 up to about 1.1 µM and inactive = higher.

Check out these entries, answers already filled in.
1. CC1=CC2C3(C)C(C)(C(C)=CP3(=O)c3c(C(C)C)cc(C(C)C)cc3C(C)C)C1P2(=O)c1c(C(C)C)cc(C(C)C)cc1C(C)C (stereo not given)    2.04 µM (inactive)
2. CCOP(=O)(OCC)/C(=C/c1cccs1)CC(C)=O    > 100 µM (inactive)

QUERY: Give the reported GI50 for Clc1cc2nnn(C3CCCO3)c2cc1Cl (stereo not given) (system: CCRF-CEM).
RESULT: > 100 µM (inactive)

QUERY: Requested read-out GI50, target or system CCRF-CEM, entry CCNc1ncnc2c1nnn2CC
RESULT: > 100 µM (inactive)

QUERY: Please provide the recorded GI50 for CC(=O)N[C@@H](Cc1ccc(O)cn1)C(=O)NCc1ccc(Cl)cc1 , tested on CCRF-CEM.
RESULT: 31.5 µM (inactive)

====

System: DMS-114
Test: NCI tumour cell line growth inhibition, 48 h
The source made the active and inactive calls. Cut-off read from the data, not from the text of the source: active = GI50 up to about 1.1 µM and inactive = higher.
Mark one answer only. Choices: active, inactive

1. COc1cc2c[n+](C)c3c4cc(OC)c(OC(C)C)cc4ccc3c2cc1OC    inactive
2. CCCCCCCCCCCCCC1CCC(CC)N1 (configuration not stated)    inactive
3. COc1ncn(C2C=C(CO)C(O)C2O)c(=O)n1 (configuration not stated)    inactive
4. CC1C(O)[C@@]2(OC[C@@]34C(=O)CC5(O)[C@H](CCC6Cc7nc8c(nc7C[C@]65C)CC5CC[C@@H]6C7=C[C@H]9O[C@@]%10(O[C@@](C)(CO)C[C@@H]%10O)C(C)[C@@]9(O)[C@]7(C)[C@@H](O)CC6[C@]5(C)C8)C3=CC[C@H]4C2C)OC1(C)C (some centres not stated)    active
5. CC(SC1=CC(=O)c2c(Cl)ccc(O)c2C1=O)C(=O)O (configuration not stated)    inactive

QUERY: Status in this test for O=C1c2ccccc2C(=O)c2sc(Nc3ccc(Cl)cc3)nc21 ?
RESULT: inactive

QUERY: Outcome? C[C@H]1C[C@@H]2[C@H]([C@@H](O)C[C@@]3(C)[C@H]2CC[C@]3(O)C(=O)CO)[C@@]2(C)C=CC(=O)C=C12 [METHYLPREDNISOLONE]
RESULT: inactive

QUERY: Each compound tested received a call. Report the one for CN(C)CCCOc1ccc(/C=C2/CCC/C(=C/c3ccc(OCCCN(C)C)cc3)C2=O)cc1 .
RESULT: inactive

QUERY: Outcome logged for O=C1C=CC(=O)c2ccc(=O)ccc21 in this assay:
RESULT: inactive

QUERY: Call for entry C#CCOc1c(C(=O)OCC)c(=O)n(C)c2ccccc12 :
RESULT: inactive

QUERY: Lab log entry: CC(C)(C)C1=Nc2c(Br)cc(C(C)(C)C)cc2C(C(F)(F)F)(C(F)(F)F)O1 — outcome as called in the assay?
RESULT: inactive

QUERY: Which outcome did this test record for the compound O=C(NC1CC1)c1c(O)[nH]c(=S)[nH]c1=O ?
RESULT: inactive

QUERY: Write down the call the test reported for this compound. Item: Cc1ccc(S(=O)(=O)OCC/C(=C\[Si](C)(C)C)c2ccccc2)cc1
RESULT: inactive

QUERY: Outcome logged for Cn1nc(N)nc1N=S(C)(C)=N in this assay:
RESULT: inactive

QUERY: Identify the outcome logged in this assay for the compound shown: CN(C)CC1CCC(CN(C)C)C1=O (configuration not stated)
RESULT: inactive

QUERY: Test call for this compound, please: CN(C)/C(=N/C(=O)Nc1ccccc1)SCc1ccccc1
RESULT: inactive

QUERY: Status in this test for Brc1c2nc3ccccc3nc2n2ccc3ccccc3c12 ?
RESULT: inactive

====

Tested on: Malme-3M
Assay: NCI tumour cell line growth inhibition, 48 h
The source made the active and inactive calls. Rule as the data show it: active = GI50 up to about 1.1 µM and inactive = higher.
Reported GI50 values for the following compounds.

Known GI50 results, listed for orientation:
1. CN(CCCCCl)P(=O)(OCc1ccc([N+](=O)[O-])o1)OCC1OC(n2ccc(N)nc2=O)C(O)C1O (stereo unspecified)    1.16 µM (inactive)
2. CC(SC1=CC(=O)c2c(Cl)ccc(O)c2C1=O)C(=O)O (stereo unspecified)    19.7 µM (inactive)
3. CC1C/C(=N\N(C)C)C(C#N)(C#N)C1(C#N)C#N (stereo unspecified)    7.6 µM (inactive)
4. O=C1N[C@H](C(=O)O)[C@@H](c2ccc(OCc3ccccc3)cc2)O1    > 100 µM (inactive)
5. COc1cc2c(cc1OC)C(CCN)=NCC2    18.8 µM (inactive)

QUERY: Which GI50 is listed for COc1cc(O)c2c(c1)OCC1(Cc3cc(OC)c(OC)cc31)C2=O (stereo unspecified) ?
RESULT: 87.7 µM (inactive)

QUERY: Looking for the measured GI50 of Cc1ccc(C(=O)Oc2ccccc2)cc1/N=N/N(C)C , can you help?
RESULT: > 100 µM (inactive)

QUERY: Looking for the measured GI50 of CCCCN(CCCC)C(=O)/C(CC(=O)c1cccc2ccccc12)=N\NC(=O)c1cc2ccccc2cc1O , can you help?
RESULT: 16.9 µM (inactive)

QUERY: Consider the compound shown here: COC(=O)c1c(O)ccc2c1c1c(n2CCc2ccc(OC)c(OC)c2)C(=O)c2ccccc2C1=O What is its recorded GI50?
RESULT: 14 µM (inactive)

QUERY: Item under review: CC(C)(C)NC(=O)N1N=C(c2ccccc2)C1c1ccccc1 (stereo unspecified) . Reported GI50?
RESULT: 25.3 µM (inactive)

QUERY: Given the entry c1ccc(CNCCCNCCCCNCCCNCc2ccccc2)cc1 , report its measured GI50.
RESULT: 2.02 µM (inactive)

====

Each entry below carries its reported GI50.
Tested on: NCI/ADR-RES
Assay: NCI tumour cell line growth inhibition, 48 h
Activity calls are given as the source filed them. No stated cut-off is given here; in the data, active = GI50 up to about 1.1 µM and inactive = higher.

Would you please look over these solved cases?
1) CCOc1ccc(-n2c(=O)n3c(Nc4ccc(Cl)cc4)nc4c(c(=O)n(C)c(=O)n4C)n3c2=O)cc1    > 100 µM (inactive)
2) CC(=O)c1ccc(N2CCN(C3=C(Cl)C(=O)c4c(O)ccc(O)c4C3=O)CC2)cc1    9.1 µM (inactive)
3) CCOC(=O)/C(=C\NC#N)c1nc2ccccc2[nH]1    > 100 µM (inactive)
4) CC(CC(C#N)(c1ccccc1)c1ccccc1)N1CCCCC1 (stereo unspecified)    28.1 µM (inactive)
5) Cc1ccc2c(c1)S(=O)(=O)c1ccc3ccccc3c1N2    > 100 µM (inactive)
6) O/N=C1/CCCc2nonc21    > 100 µM (inactive)
7) CC(=O)Oc1ccc(OC(Oc2ccccc2)c2ccccc2)cc1 (stereo unspecified)    50.9 µM (inactive)
8) CNC(=O)c1nc[nH]c1/N=N/N(C)N    > 100 µM (inactive)
9) Cc1cccc2c1C(=O)[C@@](C)([C@]1(C)Nc3cccc(C)c3C1=O)N2    > 100 µM (inactive)
10) Nc1ccc([As](=O)(O)O)cc1 [ARSANILIC ACID]    > 100 µM (inactive)

We now examine a further molecule.
QUERY: What value of measured GI50 is listed for Nc1ncnc2c1ccn2CC#CCO ?
RESULT: > 100 µM (inactive)
